# Test system: 695427-040-R-J1-PDC complex spheroid viability
# ASSAY_NOTES: Anticancer human tumor 695427-040-R-J1-PDC patient-derived colon adenocarcinoma cell line growth inhibition [POLQ]
# MEASUREMENT_SETUP: second compound 0.316 µM; first compound 1 µM; stronger effect = lower value
What viability, T/C was measured for each of the following?
Give your result in % as a bare value.

Query: # query: viability, T/C of entry CC1COCCN1c1cc(C2(S(C)(=N)=O)CC2)nc(-c2ccnc3[nH]ccc23)n1 (centres undefined) + Cc1cccc(N(C)C(=O)C2C(O)CCN2c2nc(C)cc(C(F)(F)F)c2C#N)c1
Reply: 93.4

Query: Look up viability, T/C: COc1cc(C2c3cc4c(cc3C(OC3OC5COC(C)OC5C(O)C3O)C3COC(=O)C23)OCO4)cc(OC)c1O (centres undefined) + COC1C(OC(N)=O)C(O)C(Oc2ccc3c(O)c(NC(=O)c4ccc(O)c(CC=C(C)C)c4)c(=O)oc3c2C)OC1(C)C
Reply: 97

Query: Look up viability, T/C for this molecule: COc1cccc2c1C(=O)c1c(O)c3c(c(O)c1C2=O)CC(O)(C(=O)CO)CC3OC1CC(N)C(O)C(C)O1 (centres undefined) + COC1C(OC(N)=O)C(O)C(Oc2ccc3c(O)c(NC(=O)c4ccc(O)c(CC=C(C)C)c4)c(=O)oc3c2C)OC1(C)C
Reply: 79

Query: Recorded viability, T/C for CC(C)n1c(=O)n(C)c2cnc3cc(F)c(-c4ccc(OCCCN5CCCCC5)nc4)cc3c21 + Nc1ccc(C#CCN(C(=O)Cc2ncc(C(F)(F)F)cc2C(F)(F)F)c2ccc(F)cc2)nn1 , please?
Reply: 110

###

# Test system: 695427-040-R-J1-PDC complex spheroid viability
# ASSAY_NOTES: Anticancer human tumor 695427-040-R-J1-PDC cell line growth inhibition [POLQ];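 also: spheroids exposed to compounds for seven days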;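 as to viability, T/C: 100% = DMSO vehicle control viability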
# MEASUREMENT_SETUP: second compound 10 µM; first compound 1 µM; stronger effect = lower value
So I've got a bunch of compounds here, and I need their viability, T/C values.
Supply the numeric figure in %, leaving out any unit text.

Query: Recorded viability, T/C for CCc1cc2c(N3CCc4c(cc(Cn5ccnc5)cc4-c4cn(C)nc4C(F)(F)F)C3=O)ccnc2c(OC)n1 + COC1C(OC(N)=O)C(O)C(Oc2ccc3c(O)c(NC(=O)c4ccc(O)c(CC=C(C)C)c4)c(=O)oc3c2C)OC1(C)C , please?
Reply: 106

Query: What does the record list as viability, T/C for Nc1ccn(C2OC(CO)C(O)C2(F)F)c(=O)n1 (stereo not given) + COC1C(OC(N)=O)C(O)C(Oc2ccc3c(O)c(NC(=O)c4ccc(O)c(CC=C(C)C)c4)c(=O)oc3c2C)OC1(C)C ?
Reply: 73.1

Query: Value lookup for viability, T/C; key = COc1cc2cc(C(=O)CCC(=O)O)sc2cc1OC + Nc1ccc(C#CCN(C(=O)Cc2ncc(C(F)(F)F)cc2C(F)(F)F)c2ccc(F)cc2)nn1
Reply: 87.4

Query: What does the record list as viability, T/C for COc1cc(C2c3cc4c(cc3C(OC3OC5COC(C)OC5C(O)C3O)C3COC(=O)C23)OCO4)cc(OC)c1O (stereo not given) + Nc1ccc(C#CCN(C(=O)Cc2ncc(C(F)(F)F)cc2C(F)(F)F)c2ccc(F)cc2)nn1 ?
Reply: 87.8

Query: What value of viability, T/C has been recorded for this entry: CCCS(=O)(=O)Nc1ccc(F)c(C(=O)c2c[nH]c3ncc(-c4ccc(Cl)cc4)cc23)c1F + COC1C(OC(N)=O)C(O)C(Oc2ccc3c(O)c(NC(=O)c4ccc(O)c(CC=C(C)C)c4)c(=O)oc3c2C)OC1(C)C
Reply: 113

Query: // returns reported viability, T/C for input CC1COCCN1c1cc(-c2ccnn2C)c2ccnc(-c3ccn[nH]3)c2n1 (stereo not given) + COC1C(OC(N)=O)C(O)C(Oc2ccc3c(O)c(NC(=O)c4ccc(O)c(CC=C(C)C)c4)c(=O)oc3c2C)OC1(C)C
Reply: 47.5

Query: Any idea what its viability, T/C is? The compound is O=C(Nc1ccc(O)c(NS(=O)(=O)c2ccc(F)cc2)c1)c1ccc(-c2ccccc2)cc1 + Cc1cccc(N(C)C(=O)C2C(O)CCN2c2nc(C)cc(C(F)(F)F)c2C#N)c1
Reply: 94

Query: Reported viability, T/C, compound CCc1cc2c(N3CCc4c(cc(Cn5ccnc5)cc4-c4cn(C)nc4C(F)(F)F)C3=O)ccnc2c(OC)n1 + Nc1ccc(C#CCN(C(=O)Cc2ncc(C(F)(F)F)cc2C(F)(F)F)c2ccc(F)cc2)nn1 : ____
Reply: 110

Query: Which viability, T/C value is on record for O=C(Nc1ccc(O)c(NS(=O)(=O)c2ccc(F)cc2)c1)c1ccc(-c2ccccc2)cc1 + COC1C(OC(N)=O)C(O)C(Oc2ccc3c(O)c(NC(=O)c4ccc(O)c(CC=C(C)C)c4)c(=O)oc3c2C)OC1(C)C ?
Reply: 105

Query: Could you share which viability, T/C value was measured for CC1COCCN1c1cc(C2(O)CC3CCC(C2)O3)c2cnn(-c3ccn[nH]3)c2n1 (stereo not given) + Nc1ccc(C#CCN(C(=O)Cc2ncc(C(F)(F)F)cc2C(F)(F)F)c2ccc(F)cc2)nn1 ?
Reply: 65.1

Query: Recorded viability, T/C of C=CCn1c(=O)c2cnc(Nc3ccc(N4CCN(C)CC4)cc3)nc2n1-c1cccc(C(C)(C)O)n1 + Cc1cccc(N(C)C(=O)C2C(O)CCN2c2nc(C)cc(C(F)(F)F)c2C#N)c1 , please.
Reply: 67.9

Query: What viability, T/C value was documented for this compound, O=c1[nH]cc(F)c(=O)[nH]1 + Cc1cccc(N(C)C(=O)C2C(O)CCN2c2nc(C)cc(C(F)(F)F)c2C#N)c1 ?
Reply: 96.3

Query: Suppose we examine the compound CCCS(=O)(=O)Nc1ccc(F)c(C(=O)c2c[nH]c3ncc(-c4ccc(Cl)cc4)cc23)c1F + Cc1cccc(N(C)C(=O)C2C(O)CCN2c2nc(C)cc(C(F)(F)F)c2C#N)c1 ; what viability, T/C value has been reported?
Reply: 98.8

Query: Could you share which viability, T/C value was measured for CCc1c2c(nc3ccc(O)cc13)-c1cc3c(c(=O)n1C2)COC(=O)[C@]3(O)CC + COC1C(OC(N)=O)C(O)C(Oc2ccc3c(O)c(NC(=O)c4ccc(O)c(CC=C(C)C)c4)c(=O)oc3c2C)OC1(C)C ?
Reply: 42

Query: Consider the compound COc1ccc([C@@H](O)c2cc(-c3ncnc4cc(N5CCOCC5)ccc34)c(F)cc2Cl)nn1 + Cc1cccc(N(C)C(=O)C2C(O)CCN2c2nc(C)cc(C(F)(F)F)c2C#N)c1 and give its measured viability, T/C.
Reply: 78.9

###

# Tested on: 695427-040-R-J1-PDC complex spheroid viability
# ASSAY_NOTES: Anticancer human tumor 695427-040-R-J1-PDC cell line growth inhibition [POLQ];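 also: spheroids exposed to compounds for seven days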
# MEASUREMENT_SETUP: curve of first compound; second compound 0.0316 µM
pIC50: −log10 of the molar value.
Would you mind telling me the reported pIC50 of each entry?

Query: Consider the compound shown here: C=CCn1c(=O)c2cnc(Nc3ccc(N4CCN(C)CC4)cc3)nc2n1-c1cccc(C(C)(C)O)n1 + COC1C(OC(N)=O)C(O)C(Oc2ccc3c(O)c(NC(=O)c4ccc(O)c(CC=C(C)C)c4)c(=O)oc3c2C)OC1(C)C What is its recorded pIC50?
Reply: < 6.00

Query: Sample O=c1[nH]cc(F)c(=O)[nH]1 + COC1C(OC(N)=O)C(O)C(Oc2ccc3c(O)c(NC(=O)c4ccc(O)c(CC=C(C)C)c4)c(=O)oc3c2C)OC1(C)C — what was its pIC50?
Reply: < 5.00

Query: Returns the measured pIC50 for the input compound. Input: C#Cc1c(F)ccc2cc(O)cc(-c3ncc4c(N5CC6CCC(C5)N6)nc(OCC56CCCN5CC(F)C6)nc4c3F)c12 (centres undefined) + Nc1ccc(C#CCN(C(=O)Cc2ncc(C(F)(F)F)cc2C(F)(F)F)c2ccc(F)cc2)nn1
Reply: < 5.00

Query: Would you mind telling me what pIC50 value was observed for COc1ccc([C@@H](O)c2cc(-c3ncnc4cc(N5CCOCC5)ccc34)c(F)cc2Cl)nn1 + Nc1ccc(C#CCN(C(=O)Cc2ncc(C(F)(F)F)cc2C(F)(F)F)c2ccc(F)cc2)nn1 ?
Reply: < 5.00

###

Kindly supply the reported viability, T/C values for the records listed here.
# Test system: 695427-040-R-J1-PDC complex spheroid viability
# ASSAY_NOTES: Anticancer human tumor 695427-040-R-J1-PDC cell line growth inhibition [POLQ];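 also: spheroids exposed to compounds for seven days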;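 as to viability, T/C: 100% = DMSO vehicle control viability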
# MEASUREMENT_SETUP: second compound 0.0316 µM; first compound 3.16 µM; stronger effect = lower value

Query: Requested read-out: viability, T/C. Entry: COc1ccc([C@@H](O)c2cc(-c3ncnc4cc(N5CCOCC5)ccc34)c(F)cc2Cl)nn1 + COC1C(OC(N)=O)C(O)C(Oc2ccc3c(O)c(NC(=O)c4ccc(O)c(CC=C(C)C)c4)c(=O)oc3c2C)OC1(C)C
Reply: 75.5%

Query: Any idea what viability, T/C was measured for C=CC(=O)N1CCN(c2nc(=O)n(-c3c(C)ccnc3C(C)C)c3nc(-c4c(O)cccc4F)c(F)cc23)C(C)C1 (centres undefined) + Nc1ccc(C#CCN(C(=O)Cc2ncc(C(F)(F)F)cc2C(F)(F)F)c2ccc(F)cc2)nn1 ?
Reply: 110%

Query: Reported viability, T/C, compound O=C(Nc1ccc(O)c(NS(=O)(=O)c2ccc(F)cc2)c1)c1ccc(-c2ccccc2)cc1 + COC1C(OC(N)=O)C(O)C(Oc2ccc3c(O)c(NC(=O)c4ccc(O)c(CC=C(C)C)c4)c(=O)oc3c2C)OC1(C)C : ____
Reply: 103%

Query: Recorded viability, T/C for O=c1[nH]cc(F)c(=O)[nH]1 + Cc1cccc(N(C)C(=O)C2C(O)CCN2c2nc(C)cc(C(F)(F)F)c2C#N)c1 , please?
Reply: 106%

Reference source for all entries: PubChem BioAssay AID1963840
